biological target: MFSD7C (major facilitator superfamily domain containing 7C; FLVCR2; SLC49A2) (Homo sapiens); construct: N-terminal domain (NTD), amino acids 1–84; assay: ITC with purified NTD; also heme absorbance-shift (Soret/Q band) and gel-filtration co-elution
Sequence (Q9UPI3 1-84): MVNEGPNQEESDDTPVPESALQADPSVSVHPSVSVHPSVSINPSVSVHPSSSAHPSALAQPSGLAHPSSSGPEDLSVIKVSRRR
READOUT TYPE: Kd

Asked: Quickly give me recorded Kd for C=CC1=C(C)C2=Cc3c(C=C)c(C)c4[n]3[Fe][n]3c(c(C)c(CCC(=O)O)c3=CC3=NC(=C4)C(C)=C3CCC(=O)O)=CC1=N2
Given back: ~1 µM
